Target: UniProt P00742
Sequence (P00742 235-488 limits assumed): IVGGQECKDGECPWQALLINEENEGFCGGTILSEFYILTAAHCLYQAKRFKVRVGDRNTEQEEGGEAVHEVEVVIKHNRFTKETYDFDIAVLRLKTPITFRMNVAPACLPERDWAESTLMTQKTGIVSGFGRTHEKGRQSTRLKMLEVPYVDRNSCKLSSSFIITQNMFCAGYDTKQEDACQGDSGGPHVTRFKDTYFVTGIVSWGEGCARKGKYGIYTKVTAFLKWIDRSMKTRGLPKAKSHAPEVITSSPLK
Sequence (P00742 41-179 partner limits assumed): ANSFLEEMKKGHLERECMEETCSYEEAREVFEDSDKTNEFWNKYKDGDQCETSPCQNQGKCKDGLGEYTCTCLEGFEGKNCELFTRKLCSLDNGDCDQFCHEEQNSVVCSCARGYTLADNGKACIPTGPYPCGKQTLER
Assay: Related protease inhibition: FXa, fluorogenic substrate
Type: biochemical
Settings: fluorogenic substrate at Km, 25° C.; H1-H3 = % activity at 40 μM
READOUT: IC50

1) CC(=O)NCc1nn(-c2cccc(Cl)c2)c2c1CCN(c1ccc3c(c1)C(=O)N(C)CC3)C2=O [Example 1385] : 3 to 10 µM
2) Cc1cc(CNC(=O)c2nn(-c3cccc(C#N)c3)c3c2CCN(c2ccc4c(c2)C(=O)N(C)CC4)C3=O)nn1C [Example 2012] : > 40 µM
3) CS(=O)(=O)CCN1CCc2ccc(N3CCc4c(C(=O)NCC5CC5)nn(-c5cccc(Cl)c5)c4C3=O)cc2C1 [Example 1176] : > 40 µM
4) COc1cc(N2CCc3c(C(=O)NCC4CC4)nn(-c4cccc(Cl)c4)c3C2=O)cc2c1CCN(CCO)C2 [Example 1226] : > 40 µM
5) CCN1CCc2cc(F)c(N3CCc4c(C(=O)NCC5CC5)nn(-c5cccc(Cl)c5)c4C3=O)cc2C1 [Example 1079] : 10 to 40 µM
6) CN1CCc2ccc(N3CCc4c(C(=O)NC5CCOCC5)nn(-c5cccc(Cl)c5)c4C3=O)cc2C1=O [Example 1203] : > 40 µM
7) Cc1cc(CNC(=O)c2nn(-c3cccc(Cl)c3)c3c2CCN(c2ccc4c(c2)C(=O)N(C)[C@H](CO)CO4)C3=O)nn1C [Example 1351] : > 40 µM
8) CCN1CCc2cnc(N3CCc4c(C(=O)NCC5CC5)nn(-c5cccc(Cl)c5)c4C3=O)cc2C1 [Example 1117] : 10 to 40 µM
9) O=C(NCc1cc(C2CC2)n[nH]1)c1nn(-c2cccc(Cl)c2)c2c1CCN(c1cccc(CN3CCCCC3)c1)C2=O [Example 1237] : > 40 µM
10) CN1CCc2ccc(N3CCc4c(C(=O)NCC5CCOCC5)nn(-c5cccc(Cl)c5)c4C3=O)cc2C1 [Example 1027] : 3 to 10 µM
11) CN1CCc2ccc(N3CCc4c(C(=O)NCC5CC5)nn(-c5cccc(Cl)n5)c4C3=O)cc2C1=O [Example 2020] : > 40 µM
12) Cc1cc(CNC(=O)c2nn(-c3cccc(Cl)c3)c3c2CCN(c2ccc4c(c2)C(=O)N(CC(F)(F)F)CCO4)C3=O)n[nH]1 [Example 1378] : 10 to 40 µM
13) Cc1cc(CNC(=O)c2nn(-c3cccc(Cl)c3)c3c2CCN(c2ccc4c(c2)C(=O)N(C)CCC4)C3=O)nn1C [Example 1238] : 3 to 10 µM
14) CN1CCc2ccc(N3CCc4c(C(=O)NCCO)nn(-c5cccc(Cl)c5)c4C3=O)cc2C1=O [Example 1340] : > 40 µM
15) O=C(O)c1nn(-c2cccc(Cl)c2)c2c1CCN(c1cccc(CN3CCCCC3)c1)C2=O [Example 1232] : > 40 µM
16) CN1CCc2ccc(N3CCc4c(CNS(C)(=O)=O)nn(-c5cccc(Cl)c5)c4C3=O)cc2C1=O [Example 1403] : 3 to 10 µM
17) Cc1cc(CNC(=O)c2nn(-c3cccc(Cl)c3)c3c2CCN(c2ccc4c(c2)C(=O)N(CCO)[C@@H](C)CO4)C3=O)n[nH]1 [Example 1380] : 10 to 40 µM
18) Cc1ccncc1CNC(=O)c1nn(-c2cccc(Cl)c2)c2c1CCN(c1ccc3c(c1)C(=O)N(CCO)CC3)C2=O [Example 1236] : > 40 µM
19) CCNC(=O)c1nn(-c2cccc(Cl)c2)c2c1CCN(c1ccc3c(c1)CN(C)CC3)C2=O [Example 1014] : 10 to 40 µM
20) CCNC(=O)c1nn(-c2cccc(Cl)c2)c2c1CCN(c1cccc(N3CCC4(CC4)C3=O)c1)C2=O [Example 1400] : > 40 µM
21) CN1CCc2ccc(N3CCc4c(COC5(C)COC5)nn(-c5cccc(Cl)c5)c4C3=O)cc2C1=O [Example 1354] : 10 to 40 µM
22) Cc1nc2c(CNS(=O)(=O)C3CC3)nn(-c3cccc(Cl)c3)c2c(=O)n1-c1ccc2c(c1)CN(CCO)CC2 [Example 3007] : 3 to 10 µM
23) COc1ccncc1CNC(=O)c1nn(-c2cccc(Cl)c2)c2c1CCN(c1ccc3c(c1)C(=O)N(C)CC3)C2=O [Example 1271] : > 40 µM
24) Cc1cccc(CNC(=O)c2nn(-c3cccc(Cl)c3)c3c2CCN(c2ccc4c(c2)CN(CCO)CC4)C3=O)n1 [Example 1139] : 10 to 40 µM
25) CN1CCc2ccc(N3CCc4c(C(=O)N[C@@H]5CCOC5)nn(-c5cccc(Cl)c5F)c4C3=O)cc2C1=O [Example 2039] : > 40 µM
26) CN1CCc2ccc(N3CCc4c(C(=O)NC(CO)c5cccnc5)nn(-c5cccc(Cl)c5)c4C3=O)cc2C1=O (stereo not shown) [Example 1187] : > 40 µM
27) Cc1cn(C)nc1CNC(=O)c1nn(-c2cccc(Cl)c2)c2c1CCN(c1ccc3c(c1)C(=O)N(CCO)CC3)C2=O [Example 1217] : 10 to 40 µM
28) O=C(OCc1ccccc1)c1nn(-c2cccc(Cl)c2)c2c1CCN(c1cccc(CN3CCCCC3)c1)C2=O [Example 1006] : 10 to 40 µM

----------
Target: Human Factor XIIa (hFXIIa) (Homo sapiens, UniProt P00748)
Sequence (P00748 373-615 limits assumed): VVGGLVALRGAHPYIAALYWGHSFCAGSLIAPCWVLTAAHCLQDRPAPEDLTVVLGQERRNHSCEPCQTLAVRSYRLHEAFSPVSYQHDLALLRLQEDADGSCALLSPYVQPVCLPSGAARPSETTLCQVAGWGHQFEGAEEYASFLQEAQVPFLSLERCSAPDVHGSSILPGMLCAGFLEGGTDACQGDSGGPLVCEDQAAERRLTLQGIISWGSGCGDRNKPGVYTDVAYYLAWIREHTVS
Sequence (P00748 20-372 partner limits assumed): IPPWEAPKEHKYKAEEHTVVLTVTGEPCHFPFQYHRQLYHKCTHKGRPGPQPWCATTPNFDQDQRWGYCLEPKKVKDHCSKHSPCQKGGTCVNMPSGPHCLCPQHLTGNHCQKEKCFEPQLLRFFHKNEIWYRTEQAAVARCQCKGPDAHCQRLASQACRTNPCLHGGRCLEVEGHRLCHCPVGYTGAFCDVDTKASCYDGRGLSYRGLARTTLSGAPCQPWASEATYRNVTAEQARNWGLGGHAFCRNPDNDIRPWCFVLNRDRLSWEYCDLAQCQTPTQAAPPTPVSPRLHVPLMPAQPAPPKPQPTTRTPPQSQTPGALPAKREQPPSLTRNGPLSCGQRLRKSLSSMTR
Reported IC50 values for the following compounds.
READOUT: IC50

1. O=C(NCc1cocn1)c1nn(-c2cccc(Cl)c2)c2c1CCN(c1ccc3c(c1)CN(CCO)CC3)C2=O : 100 to 300 nM
2. CN1CCc2ccc(N3CCc4c(C(=O)NO)nn(-c5cccc(Cl)c5)c4C3=O)cc2C1=O : 300 to 1000 nM
3. CN1CCc2ccc(N3CCc4c(C(=O)NC5(C(=O)O)CC5)nn(-c5cccc(Cl)c5)c4C3=O)cc2C1=O : 1000 to 3000 nM
4. O=C(NCc1cccnc1)c1nn(-c2cccc(Cl)c2)c2c1CCN(c1ccc3c(c1)CN(CCO)CC3)C2=O : 10 to 100 nM
5. Cc1cc(CNC(=O)c2nn(-c3cccc(Cl)c3F)c3c2CCN(c2ccc4c(c2)C(=O)N(C)CC4)C3=O)n[nH]1 : 10 to 100 nM
6. Cc1ccncc1CNC(=O)c1nn(-c2cccc(Cl)c2)c2c1CCN(c1ccc3c(c1)CN(CCO)CC3)C2=O : 10 to 100 nM
7. CN(C)C(=O)c1cccc(N2CCc3c(C(=O)NCC4CC4)nn(-c4cccc(Cl)c4)c3C2=O)c1 : 3000 to 10000 nM
8. CN1CCc2ccc(N3CCc4c(C(=O)NC5COCC5O)nn(-c5cccc(Cl)c5)c4C3=O)cc2C1=O (centres unmarked) : 300 to 1000 nM
9. Cc1cn(C)nc1CNC(=O)c1nn(-c2cccc(Cl)c2)c2c1CCN(c1cccc(CN3CCCCC3)c1)C2=O : 100 to 300 nM
10. O=C(NCc1ccccc1)c1nn(-c2cccc(Cl)c2)c2c1CCN(c1ccc3c(c1)CN(CCO)CC3)C2=O : 10 to 100 nM
11. COCCNC(=O)c1nn(-c2cccc(Cl)c2)c2c1CCN(c1ccc3c(c1)C(=O)N(C)CC3)C2=O : 300 to 1000 nM
12. CN1CCc2ccc(N3CCc4c(C(=O)NCC5CCO5)nn(-c5cccc(Cl)c5)c4C3=O)cc2C1 (centres unmarked) : 300 to 1000 nM
13. CCOCCN1CCc2ccc(N3CCc4c(C(=O)NCC5CC5)nn(-c5cccc(Cl)c5)c4C3=O)cc2C1 : 100 to 300 nM
14. O=C(NCc1cc(C2CC2)n[nH]1)c1nn(-c2cccc(Cl)c2)c2c1CCN(c1ccc3c(c1)CN(CCO)CC3)C2=O : 10 to 100 nM
